Source of measurements: ChEMBL document CHEMBL1153206

// pIC50 lookup, one value per entry
system: Plasminogen activator inhibitor 1 (Homo sapiens, UniProt P05121)
Sequence (P05121 whole entry): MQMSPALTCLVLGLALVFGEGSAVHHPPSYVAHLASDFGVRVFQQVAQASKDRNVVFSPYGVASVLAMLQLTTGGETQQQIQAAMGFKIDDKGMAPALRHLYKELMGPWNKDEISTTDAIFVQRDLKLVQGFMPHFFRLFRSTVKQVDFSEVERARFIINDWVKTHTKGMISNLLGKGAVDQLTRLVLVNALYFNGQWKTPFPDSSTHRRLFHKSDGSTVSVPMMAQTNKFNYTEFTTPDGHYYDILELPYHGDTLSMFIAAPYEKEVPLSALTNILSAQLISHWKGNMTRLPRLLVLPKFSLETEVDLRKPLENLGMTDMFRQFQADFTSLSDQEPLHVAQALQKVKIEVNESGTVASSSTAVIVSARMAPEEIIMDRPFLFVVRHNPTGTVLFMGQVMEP
test.description: Inhibition of human PAI1
// pIC50 is dimensionless: -log10 of concentration (M)

Examples from the recorded data:
COc1ccccc1C1=C(c2ccccc2)C(=O)N/C1=C\c1ccc(C)o1: 6.03
COc1ccc(C2=C(c3ccco3)/C(=C/c3ccc(/C=C/C(=O)O)o3)NC2=O)cc1OC: 5.96

Below: the item to evaluate.
Problem: Recorded pIC50 of N#C/C=C/c1ccc(/C=C2\NC(=O)C(c3ccccc3)=C2c2ccco2)o1 , please.
Solution: 5.92
